As shown below, each of these compounds has a reported melting point value.

C/C(=N\NC(=O)c1ccncc1)C(=O)Oc1ccc(C)cc1 [3c]	168 to 170 °C
C/C(=N\NC(=O)c1ccncc1)C(=O)Oc1ccc2ccccc2c1 [3j]	116 to 117.2 °C
C/C(=N\NC(=O)c1ccncc1)C(=O)Oc1cc(Cl)ccc1Oc1ccc(Cl)cc1Cl [3o]	153 to 155 °C
COc1ccc(OC(=O)/C(C)=N/NC(=O)c2ccncc2)cc1 [3d]	169 to 172 °C

Need melting point, item C/C(=N\NC(=O)c1ccncc1)C(=O)Oc1ccccc1 [3b]
186 to 189 °C

* * *

System: Mycobacterium tuberculosis strain 331/88 (i.e., H37Rv)
Assay: MIC micromethod in Šula's medium, drug-susceptible Mtb.
Format: cell-based
Details: Mycobacterium tuberculosis, H37RV, 336 h; 14 d incubation, precursors, Table 2; read-out: MIC Mtb. 331/88 14 d
property-measured: MIC (µM)
The response must be a number in µM with no trailing unit.

Oc1ccc(Oc2ccccc2)cc1 [4-phenoxyphenol, reference compound]	64
Oc1cc(Cl)ccc1Oc1ccc(Cl)cc1Cl [Triclosan, 5-chloro-2-(2,4-dichlorophenoxy)phenol, reference compound]	32
Oc1ccc2ccccc2c1 [2-naphthol, reference compound]	500
Cc1ccc(C(C)C)c(O)c1 [Thymol, reference compound]	64

Need MIC, item Oc1cccc2cccnc12 [Quinolin-8-ol, reference compound]
8

Need MIC, item Oc1cccc2ccccc12 [1-naphthol, reference compound]
250

Need MIC, item Cc1ccc(C(C)C)cc1O [Carvacrol, reference compound]
125

* * *

Test system: Mycobacterium kansasii 6509/96 (clinical isolate)
Assay: MIC micromethod in Šula's medium, M. kansasii
Format: cell-based
Conditions: Mycobacterium kansasii, 168 h, 7 d incubation, Table 1; read-out: MIC M. kansasii 6509/96 7 d
property-measured: MIC (µM)
The response must be a number in µM with no trailing unit.

Worked examples follow.
C/C(=N\NC(=O)c1ccncc1)C(=O)Oc1ccc2ccccc2c1	0.25
C/C(=N\NC(=O)c1ccncc1)C(=O)Oc1ccccc1	8
CC(=O)Nc1ccc(OC(=O)C(C)=NNC(=O)c2ccncc2)cc1	8
C/C(=N\NC(=O)c1ccncc1)C(=O)Oc1cccc2ccccc12	0.25
C/C(=N\NC(=O)c1ccncc1)C(=O)OCCn1c([N+](=O)[O-])cnc1C	2

For the record C/C(=N\NC(=O)c1ccncc1)C(=O)Oc1ccc(Br)cc1 , what value of MIC is listed for Mycobacterium kansasii 6509/96 (clinical isolate)?
8

* * *

System: HepG2 cells
Test: Cytotoxicity, CellTiter 96 (MTS) assay
Conditions: read-out: Cytotoxicity for HepG2 cells, IC50; 24 h incubation, 1–1000 µM
pIC50: −log10 of the molar value.
property-measured: pIC50

Worked examples follow.
C/C(=N\NC(=O)c1ccncc1)C(=O)Oc1ccc(Oc2ccccc2)cc1 [3e]	< 3.30
C/C(=N\NC(=O)c1ccncc1)C(=O)Oc1ccc2ccccc2c1 [3j]	< 3.30

Now look at this one.
Need pIC50, item C/C(=N\NC(=O)c1ccncc1)C(=O)Oc1cccc2ccccc12 [3i]
< 3.30

* * *

System: Mycobacterium tuberculosis strain 331/88 (i.e., H37Rv)
Experiment: MIC micromethod in Šula's medium, drug-susceptible Mtb.
Assay type: cell-based
Settings: Mycobacterium tuberculosis, H37RV, 504 h; 21 d incubation, precursors, Table 2; read-out: MIC Mtb. 331/88 21 d
Rule: MIC below 100 µM gives label 1, anything at or above gives label 0.

Solved cases below.
Oc1ccc2ccccc2c1 [2-naphthol, reference compound]	label 0
Cc1ncc([N+](=O)[O-])n1CCO [Metronidazole, reference compound]	label 0
Cc1ccc(C(C)C)c(O)c1 [Thymol, reference compound]	label 0
Cc1ccc(C(C)C)cc1O [Carvacrol, reference compound]	label 0
Oc1cccc2cccnc12 [Quinolin-8-ol, reference compound]	label 1

Just wondering, is MIC of Oc1cccc2ccccc12 [1-naphthol, reference compound] below 100 µM?
label 0

Just wondering, is MIC of CC(=O)Nc1ccc(O)cc1 [Paracetamol, reference compound] below 100 µM?
label 0

Just wondering, is MIC of Oc1ccc(Oc2ccccc2)cc1 [4-phenoxyphenol, reference compound] below 100 µM?
label 1

Just wondering, is MIC of Oc1cc(Cl)ccc1Oc1ccc(Cl)cc1Cl [Triclosan, 5-chloro-2-(2,4-dichlorophenoxy)phenol, reference compound] below 100 µM?
label 1

* * *

Assay: Cytotoxicity, CellTiter 96 (MTS) assay
Details: human, Cytotoxicity for HepG2 cells, IC50, 24 h incubation, 1–1000 µM
As shown below, each of these compounds has a reported IC50 at 24 h value.

Worked examples follow.
C/C(=N\NC(=O)c1ccncc1)C(=O)Oc1ccccc1 [3b]	> 1000 µM
CCSC(=O)/C(C)=N/NC(=O)c1ccncc1 [3r]	> 1000 µM
C/C(=N\NC(=O)c1ccncc1)C(=O)Oc1cc(C(C)C)ccc1C [3l]	> 1000 µM

Need IC50 at 24 h, item C/C(=N\NC(=O)c1ccncc1)C(=O)Oc1cccc2cccnc12 [3m]
247 µM

Need IC50 at 24 h, item C/C(=N\NC(=O)c1ccncc1)C(=O)Oc1ccc(F)cc1 [3f]
> 1000 µM

Need IC50 at 24 h, item C/C(=N\NC(=O)c1ccncc1)C(=O)OCc1ccncc1 [3n]
> 1000 µM

* * *

Test system: Mycobacterium kansasii 6509/96 (clinical isolate)
Assay: MIC micromethod in Šula's medium, M. kansasii
Type: cell-based
Details: Mycobacterium kansasii, 168 h, 7 d incubation, Table 1; read-out: MIC M. kansasii 6509/96 7 d
Rule: MIC below 2 µM gives t, anything at or above gives f.

Solved cases below.
C/C(=N\NC(=O)c1ccncc1)C(=O)Oc1ccc(Cl)cc1	f
C/C(=N\NC(=O)c1ccncc1)C(=O)OCc1ccncc1	f
C/C(=N\NC(=O)c1ccncc1)C(=O)Oc1cc(C(C)C)ccc1C	t
NNC(=O)c1ccncc1 [INH 1, Isoniazid, reference compound]	f
C/C(=N\NC(=O)c1ccncc1)C(=O)Oc1ccc(C)cc1	f

Just wondering, is MIC of CCSC(=O)/C(C)=N/NC(=O)c1ccncc1 below 2 µM?
t

* * *

Tested on: Mycobacterium kansasii 6509/96 (clinical isolate)
Experiment: MIC micromethod in Šula's medium, M. kansasii
Format: cell-based
Details: Mycobacterium kansasii, 336 h, 14 d incubation, Table 1; read-out: MIC M. kansasii 6509/96 14 d
Rule: MIC below 4 µM gives yes, anything at or above gives no.

NNC(=O)c1ccncc1 [INH 1, Isoniazid, reference compound]	no
C/C(=N\NC(=O)c1ccncc1)C(=O)Oc1ccccc1	no
C/C(=N\NC(=O)c1ccncc1)C(=O)Oc1ccc(C)cc1	no
C/C(=N\NC(=O)c1ccncc1)C(=O)OCc1ccncc1	no
COc1ccc(OC(=O)/C(C)=N/NC(=O)c2ccncc2)cc1	no
CCSC(=O)/C(C)=N/NC(=O)c1ccncc1	yes
C/C(=N\NC(=O)c1ccncc1)C(=O)Oc1ccc2ccccc2c1	yes
C/C(=N\NC(=O)c1ccncc1)C(=O)Oc1ccc(Cl)cc1	no

Turning now to a further record.
Just wondering, is MIC of C/C(=N\NC(=O)c1ccncc1)C(=O)Oc1cc(C(C)C)ccc1C below 4 µM?
yes

* * *

As shown below, each of these compounds has a reported MIC value.
Tested on: Mycobacterium kansasii 6509/96 (clinical isolate)
Assay: MIC micromethod in Šula's medium, M. kansasii
Type: cell-based
Conditions: Mycobacterium kansasii, 504 h, read-out: MIC M. kansasii 6509/96 21 d
The response must be a number in µM with no trailing unit.

Oc1cccc2cccnc12 [Quinolin-8-ol, reference compound]	32

Need MIC, item Oc1cc(Cl)ccc1Oc1ccc(Cl)cc1Cl [Triclosan, 5-chloro-2-(2,4-dichlorophenoxy)phenol, reference compound]
32

Need MIC, item Cc1ccc(C(C)C)cc1O [Carvacrol, reference compound]
500

Need MIC, item NNC(=O)c1ccncc1 [INH 1, Isoniazid, reference compound]
16

* * *

As shown below, each of these compounds has a reported MIC value.
Tested on: Mycobacterium avium 330/88
Experiment: MIC micromethod in Šula's medium, M. avium
Type: cell-based
Conditions: Mycobacterium avium, 330/88, 336 h; 14 d incubation, precursors, Table 2; read-out: MIC M. avium 330/88 14 d
The response must be a number in µM with no trailing unit.

Worked examples follow.
Oc1cccc2ccccc12 [1-naphthol, reference compound]	500
Cc1ccc(C(C)C)c(O)c1 [Thymol, reference compound]	250
Oc1ccc(Oc2ccccc2)cc1 [4-phenoxyphenol, reference compound]	250

Need MIC, item Oc1ccc2ccccc2c1 [2-naphthol, reference compound]
1000

* * *

As shown below, each of these compounds has a reported melting point value.

Worked examples follow.
C/C(=N\NC(=O)c1ccncc1)C(=O)Oc1ccc(Oc2ccccc2)cc1	152.4 to 155 °C
C/C(=N\NC(=O)c1ccncc1)C(=O)OCc1ccncc1	126 to 128 °C
C/C(=N\NC(=O)c1ccncc1)C(=O)Oc1cccc2ccccc12	181.1 to 182.5 °C
C/C(=N\NC(=O)c1ccncc1)C(=O)Sc1ccccc1	186 to 187 °C
C/C(=N\NC(=O)c1ccncc1)C(=O)Oc1ccc(F)cc1	174.1 to 177.2 °C

Need melting point, item CCSC(=O)/C(C)=N/NC(=O)c1ccncc1
158 to 160 °C

Need melting point, item C/C(=N\NC(=O)c1ccncc1)C(=O)Oc1ccc(Br)cc1
190 to 192 °C

Need melting point, item COC(=O)/C(C)=N/NC(=O)c1ccncc1
122 to 124.8 °C

Need melting point, item C/C(=N\NC(=O)c1ccncc1)C(=O)Oc1cccc2cccnc12
159.3 to 160.4 °C

Need melting point, item C/C(=N\NC(=O)c1ccncc1)C(=O)Oc1ccc(Cl)cc1
184 to 186.1 °C

Need melting point, item C/C(=N\NC(=O)c1ccncc1)C(=O)OCCn1c([N+](=O)[O-])cnc1C
123 to 125.7 °C
